Recorded EC50, one value per entry.
Measurement target: human CB1 (hCB1) receptor (Homo sapiens, UniProt P21554)
Construct: expressed in transfected cells; host or cells: CHO-K1
Sequence (P21554 whole entry): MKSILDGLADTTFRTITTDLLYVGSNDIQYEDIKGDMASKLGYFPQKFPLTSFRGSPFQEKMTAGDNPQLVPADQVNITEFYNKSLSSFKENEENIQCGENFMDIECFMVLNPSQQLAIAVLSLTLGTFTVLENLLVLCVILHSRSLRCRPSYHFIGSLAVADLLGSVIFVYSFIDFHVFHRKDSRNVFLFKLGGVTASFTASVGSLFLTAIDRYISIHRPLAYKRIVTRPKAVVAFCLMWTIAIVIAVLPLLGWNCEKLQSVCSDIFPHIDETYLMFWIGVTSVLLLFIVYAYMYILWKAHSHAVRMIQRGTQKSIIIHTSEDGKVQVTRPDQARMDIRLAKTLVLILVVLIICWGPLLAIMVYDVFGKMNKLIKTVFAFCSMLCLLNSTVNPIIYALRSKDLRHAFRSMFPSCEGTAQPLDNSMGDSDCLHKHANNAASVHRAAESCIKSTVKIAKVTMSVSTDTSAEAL
Experiment description: Inhibition of forskolin-activated cAMP production upon activation of hCB1 (HTRF), CHO-K1 cells
Assay type: cell-based
Condition label: CB1 pEC50, hCB1-CHO-K1 cells, forskolin-activated cAMP, pEC50=-log(EC50)
Description: Functional activity of the test compounds was assessed by measuring their potency to inhibit forskolin-activated cAMP production upon activation of the human CB1 (hCB1) or human CB2 (hCB2) receptor through homogenous time resolved fluorescence (HTRF) assays. […]
Field: numeric (µM). Do not append units.

Below, 5 compounds whose answers are already recorded.
>>> result_number("CC(C)(C)c1nc2cc(S(=O)(=O)c3ncc(C(F)(F)F)cc3Cl)ccc2n1CC1CCOCC1")
0.151
>>> result_number("CC(C)(C)c1nc2cc(S(=O)(=O)c3ccc(-c4ncon4)s3)ccc2n1CC1CCOCC1")
0.2
>>> result_number("COc1ccc(S(=O)(=O)c2ccc3c(c2)nc(C(C)(C)C)n3CC2CCOCC2)cn1 [Co. No. 54]")
0.123
>>> result_number("CCC(C)(C)c1nc2cc(S(=O)(=O)c3ccc(OC)nn3)ccc2n1CC1CCC1")
0.537
>>> result_number("CCNS(=O)(=O)c1ccc(S(=O)(=O)c2ccc3c(c2)nc(C(C)(C)C)n3CC2CCOCC2)s1")
2.29

Measured EC50 of CC(=O)c1ccc(S(=O)(=O)c2ccc3c(c2)nc(C(C)(C)C)n3CC2CCOCC2)nc1 : 3.24

Measured EC50 of Cn1ccc(S(=O)(=O)c2ccc3c(c2)nc(C(C)(C)C)n3CC2CCOCC2)cc1=O : 0.692

Measured EC50 of CC(C)(C)c1nc2cc(S(=O)(=O)c3ccnc(Cl)c3)ccc2n1CC1CCOCC1 : 0.631

Measured EC50 of COC(=O)c1cc(C)c(S(=O)(=O)c2ccc3c(c2)nc(C(C)(C)C)n3CC2CCOCC2)s1 : 1.07

Measured EC50 of COC(=O)c1ccc(S(=O)(=O)c2ccc3c(c2)nc(C(C)(C)C)n3CC2CCOCC2)nc1 : 5.25

Measured EC50 of CC(C)(C)c1nc2cc(S(=O)(=O)c3cc(S(C)(=O)=O)cnc3O)ccc2n1CC1CCOCC1 : 2.57

Measured EC50 of CC(C)(C)c1nc2cc(S(=O)(=O)c3ccnc(O)c3)ccc2n1CC1CCOCC1 : 4.68

Measured EC50 of COc1cc(S(=O)(=O)c2ccc3c(c2)nc(C(C)(C)C)n3CC2CCOCC2)ccn1 : 1.41

Measured EC50 of CC(C)(C)c1nc2cc(S(=O)(=O)c3ccc(=O)[nH]n3)ccc2n1CC1CCOCC1 : 2.69

From: patent US9284303B2
